- assayed.target: Biotin-Aβ(1-42) (Homo sapiens, UniProt P05067)
- Construct: Biotin-Aβ(1-42) (AnaSpec) at 0.2 mg/ml in hexafluoroisopropanol (HFIP); purchased AnaSpec
- Sequence (P05067 672-713 limits assumed): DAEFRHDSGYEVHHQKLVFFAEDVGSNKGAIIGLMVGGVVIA
- assay.name: Biotin-Aβ(1-42) oligomeric assay
- Assay type: biochemical
- measurement.setup: inhibition of oligomer formation at 25 uM, 30 minutes; higher = more inhibition
property.label: inhibition at 25 µM (%)
Hi! Could you send only the number? It should be in %, unit omitted.

Exam item: inhibition at 25 µM lookup needed for CN(Cc1nccs1)c1cc(-c2cccc(C(O)C(F)(F)F)c2)cc2nonc12 (stereo not shown) , thanks.
Marked response: -32

Exam item: Repeat with CN(C)C1CCN(c2cc(-c3cccc(C(O)C(F)(F)F)c3)cc3nonc23)CC1 (stereo not shown)
Marked response: 72

Exam item: What about OC(c1cccc(-c2cc(N3CC(CN4CCCC4)C3)c3nonc3c2)c1)C(F)(F)F (stereo not shown) ?
Marked response: 82

Please examine the following record next.
Exam item: State the recorded inhibition at 25 µM for this entry: CC(C)(O)[C@@H]1CCCN1c1cc(-c2cccc(C(O)C(F)(F)F)c2)cc2nonc12 (stereo partly shown)
Marked response: -3
